# target_or_test_system: USO1
# assay_method_text: pooled miR-30 sensor sort-seq; sequence = guide strand; further: reference of the scale not given here
# condition_parameters: shRNA
// reported sensor-assay potency score (higher = more potent) for each item listed
property_label: sensor-assay potency score (higher = more potent)

sequence_code	readout_value
TAGGATAGTACAAAGCTGCTGC	0.88
TACACGAACAAGCTGTAGCATT	-0.757
TACCAATACACGAACAAGCTGT	0.107
TATATTATATAGTATGTCCAAA	-1.01
TTATCATTGAAATAAATCGAAA	-1.61

====

# target_or_test_system: SERPINB7
# assay_method_text: pooled miR-30 sensor sort-seq; sequence = guide strand
# condition_parameters: shRNA
Short version: sensor-assay potency score (higher = more potent) at least -0.1 is Y, less is N.

sequence_code	class_assignment
TAAGATTTGTGCATCATCCTTG	Y
TTCTTCTCTATCTTGAACTGAG	N
TAGAAGAGTTTCCATATCCTGA	Y
TTGATTGTCATCCATCTCTCTG	N
TTCTACAATATTACTTCCTGTG	N
TAATATTACGTCTAGTGTCTTC	N
TACTTAGAGGTCATTCGCCTTG	N
TTTTCTACAATATTACTTCCTG	Y
ATTTCCTTGATTGTCATCCATC	N

====

# target_or_test_system: SPATS2L
# assay_method_text: pooled miR-30 sensor sort-seq; sequence = guide strand
# condition_parameters: shRNA
Short version: sensor-assay potency score (higher = more potent) at least -0.5 is 1, less is -1.

sequence_code	class_assignment
TTCGTTAGCAGAATCTGTGGAC	1
TTGGTTAGAAGATCCATTCTGC	1
TTCATTATTGCTTTTGTTGGGA	1
TATCTAGTTAGAGAAACGGTGC	-1
TTGAATTGCACTGCCATCCACA	1
TATTGTTCTTCTTTTTTCCTGT	1
TTGTCTTTAGCATCTTTGTTGC	-1
TTCTTCTTTAACTTTATCCATT	-1
TATATTCTGATTGACACTCTTT	1

====

// reported sensor-assay potency score (higher = more potent) for each item listed
# target_or_test_system: DNAJA2
# assay_method_text: pooled miR-30 sensor sort-seq; sequence = guide strand
# condition_parameters: shRNA
property_label: sensor-assay potency score (higher = more potent)

sequence_code	readout_value
TCGAGTGCTATCAAATTCCTGA	0.237
TATTTCACCACAATCTGACGTC	0.583
TTTCTTTAAATTTGTCTCCTGC	0.759
TAGTTCAGAAAGCTTGTCTGGG	0.299
TACCTCATGTTCTTTCTCCTGT	0.929
TAGAGCTTCAACAAGTCCTATT	-0.658
TTTCATGCCTTTGTCTACGTGG	-0.148
TTCTTCAGCTCGTTCTCGCTGG	-0.323
TTCAAGAATCTTGACTTCTTTA	-0.418

====

// reported sensor-assay potency score (higher = more potent) for each item listed
# target_or_test_system: ENAM
# assay_method_text: pooled miR-30 sensor sort-seq; sequence = guide strand
# condition_parameters: shRNA
property_label: sensor-assay potency score (higher = more potent)

sequence_code	readout_value
TAGAGCTAGTGGATTGTCCTTG	0.779
TAAATTGTTCCTCAGTAGCTAA	-0.863
TAGTCTTGTAGAGCTAGTGGAT	-0.371
TTCTTTATAGAACATGGTGTGT	-0.573
TACTGTTGAGAGTTTCTCCAGG	0.393
TTATTTGTTCTTTTGGACCCAG	0.0187
TTTAGGAGGATCTTCTTCTTTG	-0.209

====

// reported sensor-assay potency score (higher = more potent) for each item listed
# target_or_test_system: CFHR1
# assay_method_text: pooled miR-30 sensor sort-seq; sequence = guide strand
# condition_parameters: shRNA
property_label: sensor-assay potency score (higher = more potent)

sequence_code	readout_value
TTTCCCGTAGAATCTTTGCATT	-1.19
TTAAGAACTGATTTAATACTAA	-0.326
TAATTTGCACAGTATCACCTTC	0.283
TCTGTCTCGACAGTATATGAGC	-1.41
TACTCATCTGTCTCGACAGTAT	-0.805
TTGCACAGTATCACCTTCCAGA	-0.325

====

# target_or_test_system: PSKH2
# assay_method_text: pooled miR-30 sensor sort-seq; sequence = guide strand
# condition_parameters: shRNA
property_label: sensor-assay potency score (higher = more potent)

sequence_code	target_or_test_system	readout_value
TAGTTTGTCTATAAAGTCCTTC	PSKH2	-0.109
TTGCCTTTCAGAATCTTCCTGT	PSKH2	0.856
TACCATGTAAACTTGATCCTCA	PSKH2	0.763
TTGGTTTTGACCTTCGTGCTTG	PSKH2	0.0948
TTGTCTATAAAGTCCTTCGCCA	PSKH2	-0.69
TTTGTGAGAATAATGTGACTTA	PSKH2	0.516
TTTTCGACTCTTCACCTGGATG	PSKH2	-1.22
TTACCATGTAAACTTGATCCTC	PSKH2	-0.301

====

# target_or_test_system: GHDC
# assay_method_text: pooled miR-30 sensor sort-seq; sequence = guide strand
# condition_parameters: shRNA
// reported sensor-assay potency score (higher = more potent) for each item listed
property_label: sensor-assay potency score (higher = more potent)

sequence_code	target_or_test_system	readout_value
CTGCTCTCCACTGTCTTCCTGC	GHDC	-1.58
TCCACTGTCTTCCTGCTGGGTC	GHDC	-1.07
TTTTCCTCTGACAGATTCCTCA	GHDC	-0.542
TAGCTCTTCACCATCAGTCTCC	GHDC	0.0115

====

# target_or_test_system: COL16A1
# assay_method_text: pooled miR-30 sensor sort-seq; sequence = guide strand
# condition_parameters: shRNA
Short version: sensor-assay potency score (higher = more potent) at least -0.8 is criterion met, less is criterion not met.

sequence_code	target_or_test_system	class_assignment
TTGAAGGCCAGGCAATCCGGGG	COL16A1	criterion not met
AAGTGTGACATTGCTGTCCCGG	COL16A1	criterion met
ATGCAGGACACAAAGTCGCCAT	COL16A1	criterion not met
TTGAAACAGATACCACGTCTTC	COL16A1	criterion met
TTCCAATTTGAGTCCTTCCTGC	COL16A1	criterion met
TTGGTAAGGATCCCAGTTCTGC	COL16A1	criterion not met
TCGAACACAGTCATTGCCCCGT	COL16A1	criterion met
TTGTCTGATGAACCTCTTGATT	COL16A1	criterion not met

====

# target_or_test_system: AKR1C4
# assay_method_text: pooled miR-30 sensor sort-seq; sequence = guide strand
# condition_parameters: shRNA
Short version: sensor-assay potency score (higher = more potent) at least -0.4 is T, less is F.

sequence_code	class_assignment
TTTCATATCCTCTGATGTCAAC	F
TTGGTAGTGGCGTCTCACCTGG	F
TTATTGTATAAATAAGCAGAAT	F
TTTGGTGACCTCTACAGCTCTG	T
TTCTGTTTAGACCATCTAGAAC	F
TTCAGTGAGCTTTCCAAGGCTG	T
TTTGTTTGTGTTTCTTTGCTAA	T
TAAGGATGACATTCTACCTGGT	T
TATCCTCTGATGTCAACTGGAA	F
AACATATCGATAATTTCTGTTT	F
TAGAACTTTCATATCCTCTGAT	T
TACTTTTCCATTTTCATCTTTT	T
TTGGTGACCTCTACAGCTCTGT	T

====

# target_or_test_system: KLHL24
# assay_method_text: pooled miR-30 sensor sort-seq; sequence = guide strand
# condition_parameters: shRNA
// reported sensor-assay potency score (higher = more potent) for each item listed
property_label: sensor-assay potency score (higher = more potent)

sequence_code	readout_value
TTGCCTTGGTCAGTCCACCGGC	-0.546
TATTTTTCTATCTCCTACCTAA	0.015
TTCAACTGGATCGTAACAGTAT	-0.312
TATCAGAACAAGTATTATCATC	-1.27
AAACTTTTCGCTTAGTTGCTGG	-0.446
TTACAGGATCGTAGCACTCAGT	-1.07
TTTACCATTACACACAGACATA	-1.69
TGGATCATAAGATTGAACCTTA	0.374

====

# target_or_test_system: FAM134A
# assay_method_text: pooled miR-30 sensor sort-seq; sequence = guide strand
# condition_parameters: shRNA
// reported sensor-assay potency score (higher = more potent) for each item listed
property_label: sensor-assay potency score (higher = more potent)

sequence_code	readout_value
TTGGCTTCTGCCTTCATGCTGT	0.471
TAAGAGTGTAACTACTGGCCTG	-0.0872
TATTTTTCAAGTCAACACCTGC	-0.352
AAGAGTGTAACTACTGGCCTGA	0.464
TTCAAGTCAACACCTGCACAGA	-0.356
TACACAGACTACAGTGACCTAA	-0.201
TTTCTTCACATCCACCACTGGG	-0.774

Provenance of the data: the OligoGym collection
